- Tested on: CD8+ T cells of healthy HLA-B*08 donors
- measurement_description: In vitro T-cell priming assay with aAPCs loaded with peptide/MHC complexes and anti-CD28 antibody, pMHC multimer readout
- Assay type: cell-based, human
- applied_conditions: in vitro immunogenicity, HLA class I peptides, Table 10B
- From the text: In order to obtain information regarding the immunogenicity of the TUMAPs of the present invention, the inventors performed investigations using an in vitro T-cell priming assay based on repeated stimulations of CD8+ T cells with artificial antigen presenting cells (aAPCs) loaded with peptide/MHC complexes and anti-CD28 antibody. […]
metric_name: Wells positive [%]

INSERT INTO assay_data (substance, experimental_value) VALUES
  ('89 (VPYTKVQL; listed as Homo sapiens) [compound 89]', '+ (<20% = +)'),
  ('13 (EPFTRPVL; listed as Homo sapiens) [compound 13]', '+ (<20% = +)'),
  ('38 (EVYQKIIL; listed as Homo sapiens) [compound 38]', '++++ (>=70% = ++++)'),
  ('78 (DGHMKVFSL; listed as Homo sapiens) [compound 78]', '++ (20%-49% = ++)'),
  ('10 (MGKFKQCF; listed as Homo sapiens) [compound 10]', '++++ (>=70% = ++++)'),
  ('11 (MAPLKMLAL; listed as Homo sapiens) [compound 11]', '+++ (50%-69%= +++)'),
  ('19 (FTLLRRLSL; listed as Homo sapiens) [compound 19]', '++++ (>=70% = ++++)'),
  ('18 (LSLVRKAL; listed as Homo sapiens) [compound 18]', '++ (20%-49% = ++)'),
  ('34 (IYRKKYIL; listed as Homo sapiens) [compound 34]', '+ (<20% = +)'),
  ('63 (YVKRKTNVL; listed as Homo sapiens) [compound 63]', '+ (<20% = +)'),
  ('25 (HLHPKGREL; listed as Homo sapiens) [compound 25]', '++ (20%-49% = ++)'),
  ('68 (DLKIPRYPV; listed as Homo sapiens) [compound 68]', '+++ (50%-69%= +++)'),
  ('49 (FLRVFTDSL; listed as Homo sapiens) [compound 49]', '+ (<20% = +)'),
  ('75 (YARLKNVLL; listed as Homo sapiens) [compound 75]', '+++ (50%-69%= +++)'),
  ('40 (ESMLKTTL; listed as Homo sapiens) [compound 40]', '+ (<20% = +)'),
  ('48 (ELALRQTV; listed as Homo sapiens) [compound 48]', '+ (<20% = +)'),
  ('47 (HSRVKLAQL; listed as Homo sapiens) [compound 47]', '++ (20%-49% = ++)'),
  ('86 (RPIHHPLVL; listed as Homo sapiens) [compound 86]', '+ (<20% = +)'),
  ('82 (SIRKRPML; listed as Homo sapiens) [compound 82]', '+ (<20% = +)'),
  ('1 (ALKLKVAEL; listed as Homo sapiens) [compound 1]', '++ (20%-49% = ++)'),
  ('74 (RLKLRYEGL; listed as Homo sapiens) [compound 74]', '++ (20%-49% = ++)'),
  ('66 (DLKKTRVL; listed as Homo sapiens) [compound 66]', '+ (<20% = +)'),
  ('71 (HIRIKHTF; listed as Homo sapiens) [compound 71]', '++ (20%-49% = ++)'),
  ('80 (EVYLRMYQL; listed as Homo sapiens) [compound 80]', '+++ (50%-69%= +++)'),
  ('42 (VLRRKTLL; listed as Homo sapiens) [compound 42]', '+ (<20% = +)'),
  ('8 (FVRPKLVTI; listed as Homo sapiens) [compound 8]', '+ (<20% = +)');

====

- system_name: HLA-B*08:01 (Homo sapiens)
- measurement_description: MHC binding assay (UV-ligand exchange, beta2m ELISA)
- applied_conditions: MHC class I binding score; binding to HLA-B*08:01 ranged by peptide exchange yield (UV-ligand exchange, β2m ELISA)
- Text: Candidate peptides for T cell based therapies according to the present invention were further tested for their MHC binding capacity (affinity). The individual peptide-MHC complexes were produced by UV-ligand exchange, where a UV-sensitive peptide is cleaved upon UV-irradiation and exchanged with the peptide of interest as analyzed. Only peptide candidates that can effectively bind and stabilize the peptide-receptive MHC molecules prevent dissociation of the MHC complexes. […]
metric_name: Peptide exchange

INSERT INTO assay_data (substance, metric_name, experimental_value) VALUES
  ('171 (FPSQVPKQVL; listed as Homo sapiens) [compound 171]', 'Peptide exchange', '++ (20% = ++)'),
  ('215 (NPLIEIISI; listed as Homo sapiens) [compound 215]', 'Peptide exchange', '++ (20% = ++)'),
  ('242 (KPQSLQLVL; listed as Homo sapiens) [compound 242]', 'Peptide exchange', '++ (20% = ++)'),
  ('96 (RPAGVFEL; listed as Homo sapiens) [compound 96]', 'Peptide exchange', '++ (20% = ++)'),
  ('112 (NALDPLSAL; listed as Homo sapiens) [compound 112]', 'Peptide exchange', '++ (20% = ++)'),
  ('65 (NLLMRNVL; listed as Homo sapiens) [compound 65]', 'Peptide exchange', '++ (20% = ++)'),
  ('188 (EIMEKTTL; listed as Homo sapiens) [compound 188]', 'Peptide exchange', '++ (20% = ++)'),
  ('64 (FILGREAGAL; listed as Homo sapiens) [compound 64]', 'Peptide exchange', '++ (20% = ++)');

====

- system_name: HLA-B*08:01 (Homo sapiens)
- measurement_description: MHC binding assay (UV-ligand exchange, beta2m ELISA)
- applied_conditions: MHC class I binding score; binding to HLA-B*08:01 ranged by peptide exchange yield (UV-ligand exchange, β2m ELISA)
metric_name: Peptide exchange

INSERT INTO assay_data (substance, experimental_value) VALUES
  ('216 (EARPPSPAV; listed as Homo sapiens) [compound 216]', '++ (20% = ++)'),
  ('72 (LPLAHHIQL; listed as Homo sapiens) [compound 72]', '+++ (50% = +++)'),
  ('165 (QNSLRHNL; listed as Homo sapiens) [compound 165]', '++ (20% = ++)'),
  ('146 (FQTAHFYL; listed as Homo sapiens) [compound 146]', '+++ (50% = +++)'),
  ('94 (DQLLRHVM; listed as Homo sapiens) [compound 94]', '+++ (50% = +++)'),
  ('56 (ILCGSRKMPL; listed as Homo sapiens) [compound 56]', '++ (20% = ++)'),
  ('129 (HRILRLPAL; listed as Homo sapiens) [compound 129]', '+++ (50% = +++)'),
  ('246 (RLLQKSKEL; listed as Homo sapiens) [compound 246]', '++ (20% = ++)'),
  ('211 (DVISKGVSL; listed as Homo sapiens) [compound 211]', '++ (20% = ++)'),
  ('107 (LPKGLKDWQA; listed as Homo sapiens) [compound 107]', '++ (20% = ++)'),
  ('169 (YELNNLHAL; listed as Homo sapiens) [compound 169]', '++ (20% = ++)'),
  ('15 (LLKKIEHA; listed as Homo sapiens) [compound 15]', '++ (20% = ++)'),
  ('4 (QVMPKTGL; listed as Homo sapiens) [compound 4]', '++ (20% = ++)'),
  ('128 (HFHNRHVF; listed as Homo sapiens) [compound 128]', '+++ (50% = +++)'),
  ('238 (IPLAIARL; listed as Homo sapiens) [compound 238]', '+++ (50% = +++)'),
  ('173 (YPLLKDPSL; listed as Homo sapiens) [compound 173]', '+++ (50% = +++)'),
  ('16 (NRKPRTPF; listed as Homo sapiens) [compound 16]', '++ (20% = ++)'),
  ('153 (HAIPHYVTM; listed as Homo sapiens) [compound 153]', '++ (20% = ++)'),
  ('55 (VLLSRRTAL; listed as Homo sapiens) [compound 55]', '++ (20% = ++)'),
  ('84 (YITRQFVQF; listed as Homo sapiens) [compound 84]', '++ (20% = ++)');

====

- system_name: HLA-B*08:01 (Homo sapiens, UniProt P01889)
- measurement_description: MHC binding assay (UV-ligand exchange, beta2m ELISA)
- applied_conditions: MHC class I binding score; binding to HLA-B*08:01 ranged by peptide exchange yield (UV-ligand exchange, β2m ELISA)
metric_name: Peptide exchange

INSERT INTO assay_data (substance, metric_name, experimental_value) VALUES
  ('7 (AARLRPAL; listed as Homo sapiens) [compound 7]', 'Peptide exchange', '++ (20% = ++)'),
  ('68 (DLKIPRYPV; listed as Homo sapiens) [compound 68]', 'Peptide exchange', '+++ (50% = +++)'),
  ('5 (STMPKILAL; listed as Homo sapiens) [compound 5]', 'Peptide exchange', '+++ (50% = +++)'),
  ('43 (DLKKLVDSL; listed as Homo sapiens) [compound 43]', 'Peptide exchange', '+++ (50% = +++)'),
  ('120 (AQRSEMVTL; listed as Homo sapiens) [compound 120]', 'Peptide exchange', '++ (20% = ++)'),
  ('234 (VFRVGISF; listed as Homo sapiens) [compound 234]', 'Peptide exchange', '++ (20% = ++)'),
  ('233 (DVKLVFVM; listed as Homo sapiens) [compound 233]', 'Peptide exchange', '++ (20% = ++)'),
  ('124 (HSWTRTSV; listed as Homo sapiens) [compound 124]', 'Peptide exchange', '+++ (50% = +++)'),
  ('34 (IYRKKYIL; listed as Homo sapiens) [compound 34]', 'Peptide exchange', '++ (20% = ++)'),
  ('202 (RIPEKASFL; listed as Homo sapiens) [compound 202]', 'Peptide exchange', '++ (20% = ++)');
